Measured values drawn from ChEMBL document CHEMBL1177827 for this set.

Tested on: Plasmodium falciparum
Experiment: Antimalarial activity Plasmodium falciparum Dd2
Format: functional, organism-based
Property Measured: pEC50
Keep in mind that pEC50 stands for -log10 of concentration in molar terms.

Query: Look up pEC50 for this compound: "CN1CCN(c2nc(Nc3ccc(OC(F)(F)F)cc3)cc(Nc3nccn3-c3cccc(C(F)(F)F)c3)n2)CC1"
Result: 7.15

----------
System: Plasmodium falciparum
Assay: Antimalarial activity Plasmodium falciparum D10
Assay type: functional, organism-based
Property Measured: EC50 (nM)
Respond with the bare value in nM.

Query: Reported EC50 for Plasmodium falciparum, given "CN1CCN(c2nc(Nc3ccc(OC(F)(F)F)cc3)cc(Nc3nccn3-c3cccc(C(F)(F)F)c3)n2)CC1" ?
Result: 15

----------
Tested on: Plasmodium falciparum
Experiment: Antimalarial activity Plasmodium falciparum CAMP R
Type: functional, organism-based
Details: CampR
Property Measured: pEC50
Notebook: values listed as pEC50 are -log10 of the concentration (mol/L).

Query: Request body: readout pEC50, system Plasmodium falciparum, query "CN1CCN(c2nc(Nc3ccc(OC(F)(F)F)cc3)cc(Nc3nccn3-c3cccc(C(F)(F)F)c3)n2)CC1" . Return the value.
Result: 7.30

----------
Assay: Half life in mouse
Format: ADME, organism-based
Conditions: in vivo
Property Measured: half-life (h)
Provide only the numeric value, understood in h.

Query: Which half-life reading was recorded for the compound "CN1CCN(c2nc(Nc3ccc(OC(F)(F)F)cc3)cc(Nc3nccn3-c3cccc(C(F)(F)F)c3)n2)CC1" ?
Result: 12

----------
Tested on: Plasmodium falciparum
Assay: Antimalarial activity Plasmodium falciparum 3BAG
Format: functional, organism-based
Property Measured: pEC50
In textbook form, pEC50 equals minus log to base ten of the concentration in mol/L.

Query: What does the record list as pEC50 for "CN1CCN(c2nc(Nc3ccc(OC(F)(F)F)cc3)cc(Nc3nccn3-c3cccc(C(F)(F)F)c3)n2)CC1" ?
Result: 7.22

----------
Test: AUC (0 to infinity) in mouse
Assay type: ADME, organism-based
Set-up: time infinity
Conditions: plasma
Property Measured: AUC(0-inf)
Answer with the number, then the unit.

Query: Form field: reported AUC(0-inf) of "CN1CCN(c2nc(Nc3ccc(OC(F)(F)F)cc3)cc(Nc3nccn3-c3cccc(C(F)(F)F)c3)n2)CC1"
Result: 14.2 µM·h

----------
Experiment: Metabolic stability in rat microsomes assessed as extraction ratio
Format: ADME, Microsome
# hepatic extraction ratio values compiled below
Respond numerically, and do not add a unit to the figure.

| Compound | hepatic extraction ratio |
| --- | --- |
| Cc1nc(Nc2ccc(OC(F)(F)F)cc2)cc(Nc2nccn2-c2cccc(C(=O)NCCN3CCOCC3)c2)n1 | 0.243 |
| CN1CCN(c2nc(Nc3ccc(OC(F)(F)F)cc3)cc(Nc3nccn3-c3cccc(C(F)(F)F)c3)n2)CC1 | 0.264 |
| CCN1CCCC1CNC(=O)c1cccc(-n2ccnc2Nc2cc(Nc3ccc(OC(F)(F)F)cc3)nc(C)n2)c1 (centres undefined) | 0.275 |

Okay, now this compound:
Query: Find the recorded hepatic extraction ratio belonging to "CCN(CC)CCNC(=O)c1cccc(-n2ccnc2Nc2cc(Nc3ccc(OC(F)(F)F)cc3)nc(C)n2)c1" and report it.
Result: 0.367

----------
Experiment: Metabolic stability in mouse microsomes assessed as extraction ratio
Assay type: ADME, Microsome
Property Measured: hepatic extraction ratio

Observe how each entry below is paired with its result.
| Molecule | hepatic extraction ratio |
| --- | --- |
| CN1CCN(c2nc(Nc3ccc(OC(F)(F)F)cc3)cc(Nc3nccn3-c3cccc(C(F)(F)F)c3)n2)CC1 | < 0.17 |
| CCN1CCCC1CNC(=O)c1cccc(-n2ccnc2Nc2cc(Nc3ccc(OC(F)(F)F)cc3)nc(C)n2)c1 (centres undefined) | < 0.17 |
| Cc1nc(Nc2ccc(OC(F)(F)F)cc2)cc(Nc2nccn2-c2cccc(C(=O)NCCN3CCOCC3)c2)n1 | < 0.17 |

Query: May I ask what hepatic extraction ratio has been recorded for "CCN(CC)CCNC(=O)c1cccc(-n2ccnc2Nc2cc(Nc3ccc(OC(F)(F)F)cc3)nc(C)n2)c1" ?
Result: < 0.17

----------
Test: Cmax in mouse
Assay type: ADME, organism-based
Conditions: in vivo
Property Measured: Cmax (nM)
# number only, unit nM dropped from output

Query: I have this compound here, "CN1CCN(c2nc(Nc3ccc(OC(F)(F)F)cc3)cc(Nc3nccn3-c3cccc(C(F)(F)F)c3)n2)CC1" , and I need its recorded Cmax.
Result: 946

----------
Test system: Plasmodium falciparum
Test: Antimalarial activity Plasmodium falciparum TM91C235
Format: functional, organism-based
Property Measured: pEC50
A value of pEC50 is the negative decimal logarithm of a concentration given in moles per litre.

Query: Look up pEC50: "CN1CCN(c2nc(Nc3ccc(OC(F)(F)F)cc3)cc(Nc3nccn3-c3cccc(C(F)(F)F)c3)n2)CC1"
Result: 7.24

----------
Assay: Thermodynamic solubility at pH 6.8
Format: physicochemical
Conditions: buffer
Could you label it Yes if measured solubility thermodynamic is 90 µg/mL or higher, and No otherwise?

| Smiles Str | Group Label |
| --- | --- |
| CCN(CC)CCNC(=O)c1cccc(-n2ccnc2Nc2cc(Nc3ccc(OC(F)(F)F)cc3)nc(C)n2)c1 | No |
| CN1CCN(C2CCN(c3cc(-n4ccnc4Nc4cc(Nc5ccc(OC(F)(F)F)cc5)ncn4)cc(C(F)(F)F)c3)CC2)CC1 | Yes |

Query: Record "CN1CCN(c2nc(Nc3ccc(OC(F)(F)F)cc3)cc(Nc3nccn3-c3cccc(C(F)(F)F)c3)n2)CC1" ; criterion: solubility thermodynamic no lower than 90 µg/mL. Met?
Result: No

----------
Experiment: Oral bioavailability in mouse
Assay type: ADME, organism-based
Conditions: in vivo
Property Measured: bioavailability

Query: Consider the compound "CN1CCN(c2nc(Nc3ccc(OC(F)(F)F)cc3)cc(Nc3nccn3-c3cccc(C(F)(F)F)c3)n2)CC1" and give its measured bioavailability.
Result: 30%

----------
Test: Metabolic stability in human microsomes assessed as extraction ratio
Format: ADME, Microsome
Property Measured: hepatic extraction ratio

Below: 3 compounds and their reported hepatic extraction ratio.
| Smiles Str | Endpoint Result |
| --- | --- |
| CN1CCN(C2CCN(c3cc(-n4ccnc4Nc4cc(Nc5ccc(OC(F)(F)F)cc5)ncn4)cc(C(F)(F)F)c3)CC2)CC1 | 0.316 |
| CN1CCN(c2nc(Nc3ccc(OC(F)(F)F)cc3)cc(Nc3nccn3-c3cccc(C(F)(F)F)c3)n2)CC1 | < 0.28 |
| Cc1nc(Nc2ccc(OC(F)(F)F)cc2)cc(Nc2nccn2-c2cccc(C(=O)NCCN3CCOCC3)c2)n1 | < 0.42 |

Query: Which hepatic extraction ratio value is on record for "CCN(CC)CCNC(=O)c1cccc(-n2ccnc2Nc2cc(Nc3ccc(OC(F)(F)F)cc3)nc(C)n2)c1" ?
Result: < 0.31
